Experiment: Oral bioavailability in Wistar Hannover rat at 1 mg/kg by LC-MS/MS analysis
Assay type: ADME, organism-based
Details: in vivo, time <=24 hrs
READOUT_LABEL: bioavailability (%)

Known results for compounds:
{"COMPOUND": "COc1cc(C(=O)N2C[C@H](C)OC[C@@H]2CCO)cc2nc(N[C@H](CF)c3cccc(Cl)c3)oc12", "READOUT_UNIT": "%", "bioavailability": 38}
{"COMPOUND": "COc1cc(C(=O)N2CC[C@@H](O)[C@H](C)C2)cc2nc(NCc3cccc(Cl)c3)oc12", "READOUT_UNIT": "%", "bioavailability": 46}

1: COc1cc(C(=O)N2CCOC(C)(CCO)C2)cc2nc(N[C@H](C)c3cccc(Cl)c3)oc12 (some centres undefined)
2: CCCCCCOC(=O)NC(=N)c1ccc(NCc2nc3cc(C(=O)N(CCC(=O)OCC)c4ccccn4)ccc3n2C)cc1 [DABIGATRAN ETEXILATE]
Smaller bioavailability value? Options are 1 and 2 Refer to your chosen item by its label in the answer.
2
(2: 1.9%, 1: 38%)
